Target: BTK (Homo sapiens (Human), UniProt Q06187)
Sequence (Q06187 whole entry): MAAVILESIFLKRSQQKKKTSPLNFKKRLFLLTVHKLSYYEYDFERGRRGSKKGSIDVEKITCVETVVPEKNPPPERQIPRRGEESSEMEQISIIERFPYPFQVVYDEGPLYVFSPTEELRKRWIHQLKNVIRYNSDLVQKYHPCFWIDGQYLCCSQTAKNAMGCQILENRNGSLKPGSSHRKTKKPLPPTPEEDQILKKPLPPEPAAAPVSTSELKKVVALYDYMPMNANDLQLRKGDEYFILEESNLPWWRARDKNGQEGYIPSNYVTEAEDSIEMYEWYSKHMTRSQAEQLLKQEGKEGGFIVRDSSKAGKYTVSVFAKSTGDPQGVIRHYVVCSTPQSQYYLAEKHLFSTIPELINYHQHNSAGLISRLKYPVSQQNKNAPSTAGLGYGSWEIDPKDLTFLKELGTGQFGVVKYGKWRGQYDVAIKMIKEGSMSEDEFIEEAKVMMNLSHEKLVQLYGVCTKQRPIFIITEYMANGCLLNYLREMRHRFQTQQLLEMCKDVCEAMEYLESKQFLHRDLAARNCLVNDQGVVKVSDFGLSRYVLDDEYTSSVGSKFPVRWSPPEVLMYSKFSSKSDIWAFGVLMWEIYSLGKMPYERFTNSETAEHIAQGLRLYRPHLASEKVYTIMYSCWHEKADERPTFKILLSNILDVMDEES
pKi: −log10 of the molar value.
pKi vs 9: at or above is 1.0, below is 0.0.

## Input Given C=CC(=O)NCCNc1cccc(Nc2cc(-c3cc(F)cc(-n4ncc5c6c(sc5c4=O)CCCC6)c3CO)cn(C)c2=O)n1 , state whether its pKi is at least 9.
## Output 1.0

## Input Form field: pKi at least 9? Entry: C=CC(=O)N(C)CCOc1cccc(Nc2cc(-c3cc(F)cc(-n4ncc5c6c(sc5c4=O)CCCC6)c3CO)cn(C)c2=O)n1
## Output 1.0

## Input Quick check: does C=CC(=O)N[C@@H](C)COc1cccc(Nc2cc(-c3cc(F)cc(-n4ncc5c6c(sc5c4=O)CCCC6)c3CO)cn(C)c2=O)n1 have pKi greater than or equal to 9?
## Output 0.0

Next:
## Input Identify whether the reported pKi of the following compound is 9 or greater: C=CC(=O)N[C@H]1CCCN(c2cccc(Nc3cc(-c4cc(F)cc(-n5ncc6c7c(sc6c5=O)CCCC7)c4CO)cn(C)c3=O)n2)C1
## Output 0.0
